- PROTOCOL DETAILS: Cytotoxicity against human HeLa cells by MTT assay
- Assay type: cell-based
EXPERIMENTAL ENDPOINT: CC50 (µM)

MOLECULE | RECORDED RESULT
O=C(/C=C/c1ccc(C(F)(F)F)cc1)c1ccc[nH]1 | 28.2

###

Form field: viability at 1 µM (one value per entry).
- PROTOCOL DETAILS: Cytotoxicity against human HeLa cells assessed as viable cells at 1 uM by MTT assay
- Type: cell-based
- CONDITION SUMMARY: read-out: Activity

MOLECULE | viability at 1 µM (%)
O=C(/C=C/c1ccc(F)c(Br)c1)c1ccc[nH]1 | 99.4
O=C(/C=C/c1ccc(C(F)(F)F)cc1)c1ccc[nH]1 | 77.5
Cc1ccc(C(=O)/C=C/c2ccc(F)c(Br)c2)s1 | 104

###

Form field: viability at 10 µM (one value per entry).
- PROTOCOL DETAILS: Cytotoxicity against human HeLa cells assessed as viable cells at 10 uM by MTT assay
- Type: cell-based
- CONDITION SUMMARY: read-out: Activity
EXPERIMENTAL ENDPOINT: viability at 10 µM (%)

MOLECULE | EXPERIMENTAL ENDPOINT | RECORDED RESULT
O=C(/C=C/c1ccc(F)c(Br)c1)c1ccc[nH]1 | viability at 10 µM | 98
Cc1ccc(C(=O)/C=C/c2ccc(F)c(Br)c2)s1 | viability at 10 µM | 95.7
O=C(/C=C/c1ccc(C(F)(F)F)cc1)c1ccc[nH]1 | viability at 10 µM | 4.66

###

- TEST SYSTEM: Amine oxidase [flavin-containing] B (Homo sapiens, UniProt P27338)
- Sequence (P27338 whole entry): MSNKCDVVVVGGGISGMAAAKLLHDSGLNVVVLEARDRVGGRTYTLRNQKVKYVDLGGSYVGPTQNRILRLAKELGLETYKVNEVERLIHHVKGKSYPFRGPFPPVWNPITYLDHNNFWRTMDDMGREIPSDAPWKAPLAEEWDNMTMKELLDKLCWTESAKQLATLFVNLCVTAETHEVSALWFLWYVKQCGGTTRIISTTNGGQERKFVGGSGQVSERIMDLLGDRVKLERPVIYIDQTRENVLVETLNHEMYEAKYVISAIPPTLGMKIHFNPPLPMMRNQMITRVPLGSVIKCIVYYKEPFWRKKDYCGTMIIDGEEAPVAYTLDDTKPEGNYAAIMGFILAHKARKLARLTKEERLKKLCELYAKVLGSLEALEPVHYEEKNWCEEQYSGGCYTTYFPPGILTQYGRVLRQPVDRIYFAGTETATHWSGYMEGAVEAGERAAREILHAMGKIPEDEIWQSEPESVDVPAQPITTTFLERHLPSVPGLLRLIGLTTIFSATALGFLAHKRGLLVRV
pIC50: −log10 of the molar value.
EXPERIMENTAL ENDPOINT: pIC50

MOLECULE | RECORDED RESULT
COc1ccc(C(=O)/C=C/c2cccc(Cl)c2)cn1 | 6.48
COc1ccc(C(=O)/C=C/c2ccc(Cl)s2)c(O)c1 | 6.73
O=C(/C=C/c1ccc(F)c(Br)c1)c1ccc(Cl)s1 | 6.94
O=C(/C=C/c1ccc(F)c(Br)c1)c1ccc[nH]1 | 6.10
O=C(/C=C/c1ccc(C(F)(F)F)cc1)c1ccc[nH]1 | 6.08

###

- Species: Homo sapiens
- PROTOCOL DETAILS: Selectivity index, ratio of IC50 for human MAO-A to IC50 for human MAO-B
Form field: Ratio IC50 (one value per entry).

MOLECULE | Ratio IC50
O=C(/C=C/c1ccc(F)c(Br)c1)c1ccc(Cl)s1 | 91
O=C(/C=C/c1ccc(F)c(Br)c1)c1ccc[nH]1 | 11
O=C(/C=C/c1cccc(C(F)(F)F)c1)c1ccc[nH]1 | 191
O=C(/C=C/c1cccc(Cl)c1)c1ccc[nH]1 | 44
COc1ccc(C(=O)/C=C/c2ccc(Cl)s2)c(O)c1 | 54
O=C(/C=C/c1ccc(C(F)(F)F)cc1)c1ccc(Cl)s1 | 57
Cc1ccc(C(=O)/C=C/c2ccc(F)c(Br)c2)s1 | 240
COc1ccc(C(=O)/C=C/c2cccc(Cl)c2)cn1 | 46
